Source: patent US10752616B2

target: RARβ (Mus musculus (Mouse), UniProt P22605); assay: Transactivation assay for RARβ (gal4-RAR fusion, pFR-luc reporter, COS-7 cells), Table 2; type: cell-based; details: COS-7 reporter, mean of three or more determinations, species not stated (method: mouse or human)
Sequence (P22605 210-444): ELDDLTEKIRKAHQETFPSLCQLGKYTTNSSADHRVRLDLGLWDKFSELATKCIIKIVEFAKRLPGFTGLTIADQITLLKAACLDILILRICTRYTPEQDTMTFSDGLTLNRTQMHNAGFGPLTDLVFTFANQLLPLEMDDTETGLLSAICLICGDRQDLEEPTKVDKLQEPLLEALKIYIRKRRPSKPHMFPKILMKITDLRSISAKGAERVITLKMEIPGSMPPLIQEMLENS
Would you kindly list EC50 for each of these molecules?
# output: number + unit

# count of solved cases: 2
- entry-smiles: "Cc1ccc(C)c2oc(-c3nc(-c4ccc(C(=O)O)cc4N)no3)cc12"
  metric: "EC50"
  value-observed: "23 nM"
- entry-smiles: "O=C(O)c1ccc(-c2noc(-c3cc4c(Cl)ccc(Cl)c4o3)n2)cc1"
  metric: "EC50"
  value-observed: "4.3 nM"

Now for a further molecule.
Data request, read-out EC50, for "Cc1cc(-c2noc(-c3cc4c(C)ccc(C)c4o3)n2)ccc1C(=O)O"
14 nM

###

target: RARγ (Mus musculus (Mouse)); assay: Transactivation assay for RARγ (gal4-RAR fusion, pFR-luc reporter, COS-7 cells), Table 2; details: Table 2; COS-7 reporter; mean of three or more determinations; inactive = no agonist action at highest concentration tested
Sequence (P18911 185-419): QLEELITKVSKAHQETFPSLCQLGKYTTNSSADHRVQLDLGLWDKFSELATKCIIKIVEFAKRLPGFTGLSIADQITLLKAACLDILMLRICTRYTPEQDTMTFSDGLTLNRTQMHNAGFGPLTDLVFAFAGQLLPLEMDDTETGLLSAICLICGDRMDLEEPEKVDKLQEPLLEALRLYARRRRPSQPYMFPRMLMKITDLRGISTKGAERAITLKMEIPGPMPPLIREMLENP
metric: EC50
# output: number + unit

# count of solved cases: 8
- molecule: "Cc1ccc(C)c2oc(-c3nc(-c4ccc(C(=O)O)cc4Br)no3)cc12 [BHBA-003]"
  experimental-target: "RARγ (Mus musculus (Mouse))"
  EC50: "36 nM"
- molecule: "Cc1cc(-c2noc(-c3cc4c(Cl)ccc(Cl)c4o3)n2)ccc1C(=O)O [BHBA-013]"
  experimental-target: "RARγ (Mus musculus (Mouse))"
  EC50: "110 nM"
- molecule: "Cc1ccc(Cl)c2oc(-c3nc(-c4ccc(C(=O)O)cc4)no3)cc12 [BHBA-015]"
  experimental-target: "RARγ (Mus musculus (Mouse))"
  EC50: "12 nM"
- molecule: "Cc1ccc(C)c2oc(-c3nnc(-c4ccc(C(=O)O)cc4)o3)cc12 [BHBA-034]"
  experimental-target: "RARγ (Mus musculus (Mouse))"
  EC50: "58 nM"
- molecule: "Cc1ccc(C)c2oc(-c3noc(-c4ccc(C(=O)O)cc4)n3)cc12 [BHBA-028]"
  experimental-target: "RARγ (Mus musculus (Mouse))"
  EC50: "8.3 nM"
- molecule: "Cc1ccc(C)c2oc(-c3noc(-c4ccc(C(=O)O)cc4F)n3)cc12 [BHBA-030]"
  experimental-target: "RARγ (Mus musculus (Mouse))"
  EC50: "18 nM"
- molecule: "O=C(O)c1ccc(-c2noc(-c3cc4c(Cl)ccc(Cl)c4o3)n2)c(Cl)c1 [BHBA-012]"
  experimental-target: "RARγ (Mus musculus (Mouse))"
  EC50: "17 nM"
- molecule: "Cc1cc(-c2nc(-c3cc4c(C)ccc(C)c4o3)no2)ccc1C(=O)O [BHBA-032]"
  experimental-target: "RARγ (Mus musculus (Mouse))"
  EC50: "22 nM"

For each of the molecules below, note its EC50.
1. Cc1ccc(Cl)c2cc(-c3nc(-c4ccc(C(=O)O)cc4Cl)no3)oc12 [BHBA-018]
2. Cc1cc(-c2nsc(-c3cc4c(C)ccc(C)c4o3)n2)ccc1C(=O)O [BHBA-040]
3. Cc1ccc(C)c2sc(-c3nc(-c4ccc(C(=O)O)cc4)no3)cc12 [BHBA-021]
4. Cc1ccc(C)c2oc(-c3nc(-c4ccc(C(=O)O)c(F)c4)no3)cc12 [BHBA-007]
5. Cc1ccc(C)c2oc(-c3nc(-c4ccc(C(=O)O)cc4)ns3)cc12 [BHBA-038]
6. Cc1cc(C(=O)O)ccc1-c1nnc(-c2cc3c(C)ccc(C)c3o2)o1 [BHBA-035]

1. 140 nM
2. 130 nM
3. 6.3 nM
4. 8.4 nM
5. 6.1 nM
6. 83 nM

For each of the molecules below, note its EC50.
1. Cc1ccc(C(C)C)c2cc(-c3nc(-c4ccc(C(=O)O)cc4)no3)oc12 [BHBA-010]
2. Cc1ccc(C)c2sc(-c3nc(-c4ccc(C(=O)O)cc4Cl)no3)cc12 [BHBA-022]
3. Cc1c(Cl)cc(C)c2oc(-c3nc(-c4ccc(C(=O)O)cc4)no3)cc12 [BHBA-045]
4. Cc1ccc(C)c2oc(-c3nc(-c4ccc(C(=O)O)cc4Cl)no3)nc12 [BHBA-024]
5. Cc1ccc(C)c2oc(-c3nc(-c4ccc(C(=O)O)cc4Cl)ns3)cc12 [BHBA-039]

1. 0.53 nM
2. 18 nM
3. 40 nM
4. 47 nM
5. 13 nM

For each of the molecules below, note its EC50.
1. Cc1ccc(C)c2oc(-c3nnc(-c4ccc(C(=O)O)c(F)c4)o3)cc12 [BHBA-037]
2. Cc1ccc(C)c2oc(-c3nc(-c4ccc(C(=O)O)cc4)no3)nc12 [BHBA-023]

1. 60 nM
2. 83 nM

For each of the molecules below, note its EC50.
1. Cc1ccc(C)c2oc(-c3nsc(-c4ccc(C(=O)O)cc4)n3)cc12 [BHBA-042]
2. O=C(O)c1ccc(-c2noc(-c3cc4c(Cl)ccc(Cl)c4o3)n2)cc1 [BHBA-011]
3. Cc1ccc(C)c2oc(-c3nc(-c4ccc(C(=O)O)c(F)c4)no3)nc12 [BHBA-026]
4. Cc1ccc(C)c2oc(-c3nsc(-c4ccc(C(=O)O)c(F)c4)n3)cc12 [BHBA-044]
5. Cc1ccc(C)c2oc(-c3noc(-c4ccc(C(=O)O)c(F)c4)n3)cc12 [BHBA-033]

1. 2.3 nM
2. 14 nM
3. 77 nM
4. 3.4 nM
5. 23 nM
